experiment: recombinant UMI read abundance after kanamycin selection (control-corrected) (log10(CPM+1)); higher = more efficient recombination; extreme values may be limits of the assay; sequences stand for … in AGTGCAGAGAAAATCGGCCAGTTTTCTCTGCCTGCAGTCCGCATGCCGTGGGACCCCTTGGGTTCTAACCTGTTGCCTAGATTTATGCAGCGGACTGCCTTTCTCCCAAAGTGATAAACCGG…AGGTTGGTTTCACT; site = the 11-nt donor;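 note: IS621 bridge recombinase in Escherichia coli cells against a fixed T5 target plasmid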
EXPERIMENTAL_READOUT: recombinant UMI read abundance (log10)

Example results:
CGGTCATCATGGACCGGTTTTCCCGGTAATCCGTATTTGCT (site CGGGCATCTAG) = 0
ACCTCAGCATGGACCGGTTTTCCCGGTAATCCGTATTTGGG (site ACCTCAGCTCC) = 0.00849
TACCCTTCATGGACCGGTTTTCCCGGTAATCCGTATTTGGT (site TACCCTTCTAC) = 0.56
ACATCTACATGGACCGGTTTTCCCGGTAATCCGTATTTGTA (site ACATCTACTTA) = 0.989

Please look up its recombinant UMI read abundance (log10): ATAACAGCATGGACCGGTTTTCCCGGTAATCCGTATTTGTT (site ATAACAGCTAA)
1.92

Could you do the same for GTGCGTGCATGGACCGGTTTTCCCGGTAATCCGTATTTGGT (site GTGCATGCTAC) , please?
0.26

Could you do the same for TAGAAAACATGGACCGGTTTTCCCGGTAATCCGTATTTGGA (site TAGAAAACTTC) , please?
0.76

Could you do the same for TAGGAATCATGGACCGGTTTTCCCGGTAATCCGTATTTGCA (site TAGGAATCTAG) , please?
1.62

Could you do the same for GGGAAGCCATGGACCGGTTTTCCCGGTAATCCGTATTTGGG (site GCGAAGCCTCC) , please?
0

Could you do the same for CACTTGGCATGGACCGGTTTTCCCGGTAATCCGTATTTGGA (site CACGTGGCTTC) , please?
0.024

Could you do the same for ATGTAGTCATGGACCGGTTTTCCCGGTAATCCGTATTTGGC (site ATGTAGGCTGC) , please?
0

Could you do the same for TCTAACCCATGGACCGGTTTTCCCGGTAATCCGTATTTGCA (site TCTAACCCTTG) , please?
0

Could you do the same for ATCGATACATGGACCGGTTTTCCCGGTAATCCGTATTTGAC (site ATCTATACTGT) , please?
0.652

Could you do the same for TAGCCTTCATGGACCGGTTTTCCCGGTAATCCGTATTTGGC (site TAGCCTTCTGC) , please?
0

Could you do the same for AAGTCGTCATGGACCGGTTTTCCCGGTAATCCGTATTTGCG (site AAGTCGTCTCG) , please?
1.19

Could you do the same for AGGTTCGCATGGACCGGTTTTCCCGGTAATCCGTATTTGTG (site AGGTTCACTCA) , please?
0.217

Could you do the same for CGCGGCCCATGGACCGGTTTTCCCGGTAATCCGTATTTGTT (site CGCGGCCCTAA) , please?
0.202

Could you do the same for ACACTTCCATGGACCGGTTTTCCCGGTAATCCGTATTTGAC (site ACACGTCCTGT) , please?
1.08

Could you do the same for TGCAATCCATGGACCGGTTTTCCCGGTAATCCGTATTTGAA (site GGCAATCCTTT) , please?
0.0354

Could you do the same for CGATTGGCATGGACCGGTTTTCCCGGTAATCCGTATTTGCT (site CGTTTGGCTAG) , please?
0

Could you do the same for AGGAAGACATGGACCGGTTTTCCCGGTAATCCGTATTTGAA (site AGGAAGACTTA) , please?
0.985
